# Tested on: Neuregulin-1 EGF-like domain
# assay overview: small molecules binding NRG1 EGF domain – biochemical, small-molecule microarray, 635 nm fluorescence, primary screen (AID 1081);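 further: binding of the protein to compounds printed on small-molecule microarray slides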
# cond: higher = more signal
property measured: composite z-score
Provide a numeric answer; units are not to be included.

State its composite z-score on Neuregulin-1 EGF-like domain: CC(C)C(O)C1C=CC2C(=O)NC(=O)C2N1Nc1ccccn1 (stereo unspecified)
1.1

More entries:
State its composite z-score on Neuregulin-1 EGF-like domain: `COc1ccc([Si](C)(C)[C@H]2[C@H](CC(=O)N3CCC[C@H]3CO)O[C@@]3(C(=O)N(Cc4ccc(N5CCCCC5=O)cc4)c4ccccc43)[C@@H]2C)cc1`
1.12

State its composite z-score on Neuregulin-1 EGF-like domain: `COCCn1c(C(=O)N(C)C)cc2c1C[C@H]1CN(C(=O)c3ccccc3)[C@@](Cc3ccc(OC)cc3)(C(=O)OC)[C@@H]21`
1.27

State its composite z-score on Neuregulin-1 EGF-like domain: `COc1ccc([Si](C)(C)[C@@H]2[C@@H](CC(=O)N3Cc4ccccc4C[C@H]3CO)O[C@]3(C(=O)N(Cc4ccc(N5CCOC5=O)cc4)c4ccccc43)[C@H]2C)cc1`
1.09

State its composite z-score on Neuregulin-1 EGF-like domain: CC(C)(C)N1CC=CC23O[C@@H]4C=CCOC(=O)[C@@H]4[C@H]2C(=O)N(CCO)[C@@H]3C1=O (stereo partly specified)
1.66

State its composite z-score on Neuregulin-1 EGF-like domain: `CN(C)C(=O)[C@@]1(Cc2ccccc2CN=[N+]=[N-])COC(c2ccc(OCCCO)cc2)=N1`
1.1

State its composite z-score on Neuregulin-1 EGF-like domain: CCCCCC1=C2CNC(CC(C)C)(C(=O)OC)C=C2C(C)C1=O (stereo unspecified)
0.568

State its composite z-score on Neuregulin-1 EGF-like domain: `C[C@@H]1ON(c2ccc(I)cc2)[C@H](c2cccc(NC(=O)OCC3c4ccccc4-c4ccccc43)c2)[C@H]1C(=O)N1C(=O)OC[C@H]1Cc1ccccc1`
0.0222
